- measurementTarget: Carbonic anhydrase 9 (Homo sapiens, UniProt Q16790)
- measurementNotes: Inhibition of human recombinant carbonic anhydrase 9 assessed as inhibition constant incubated for 10 mins by phenol red dye based stopped-flow CO2 hydration assay
pKi: −log10 of the molar value.
quantityKind: pKi

COc1ccc2nc(-c3ccccc3OC)cc(C(=O)NCCc3ccc(S(N)(=O)=O)cc3)c2c1 = 7.17

P = COc1ccc(-c2cc(C(=O)Nc3cccc(S(N)(=O)=O)c3)c3cc(Cl)ccc3n2)cc1OC
Q = NS(=O)(=O)c1cccc(NC(=O)c2cc(-c3cccc(Br)c3)nc3ccccc23)c1
Exam item: Which record would sort first by descending pKi, P or Q ? Mark your answer with the label of the selected entry.
Marked response: Q
(Q: 7.04, P: 6.61)

A = NS(=O)(=O)c1ccc(CCNC(=O)c2cc(-c3cccc(Br)c3)nc3ccccc23)cc1
B = COc1ccc(-c2cc(C(=O)NCCc3ccc(S(N)(=O)=O)cc3)c3ccccc3n2)cc1OC
C = NS(=O)(=O)c1cccc(NC(=O)c2cc(-c3ccccc3)nc3ccccc23)c1
Exam item: Could you please order the items by pKi, going from the lowest number to the highest? Write out the labels following the order that was asked for.
Marked response: C, A, B
(C: 7.17, A: 7.41, B: 8.01)

* * *

- measurementTarget: Carbonic anhydrase 9 (Homo sapiens, UniProt Q16790)
- measurementNotes: Inhibition of human recombinant carbonic anhydrase 9 assessed as inhibition constant incubated for 10 mins by phenol red dye based stopped-flow CO2 hydration assay
quantityKind: Ki (nM)

P = NS(=O)(=O)c1ccc(CCNC(=O)c2cc(-c3ccccc3)nc3ccc(Cl)cc23)cc1
Q = NS(=O)(=O)c1ccc(NC(=O)Cn2cc(/C=C/C(=O)c3cccc(C(F)(F)F)c3)c3ccccc32)cc1
Exam item: Among P and Q , whose measured Ki is the smaller figure? Mark your answer with the label of the selected entry.
Marked response: Q
